// provenance: ChEMBL document CHEMBL3244224

# pIC50 per entry
Assay: Antagonist activity at dopamine receptor in Sprague-Dawley rat olfactory tubercles assessed as inhibition of adenylate cyclase activity after 5 mins
Assay type: tissue-based, Olfactory tubercle
Details: read-out: I50
pIC50: −log10 of the molar value.

{"structure_notation": "CN(C)CCCCN1C(=O)/C(=C/c2ccccc2)Oc2ccccc21.Cl", "pIC50": "< 3.70"}
{"structure_notation": "CN1CCN(CCCN2C(=O)/C(=C/c3ccccc3)Oc3ccc(Cl)cc32)CC1", "pIC50": "< 3.30"}
{"structure_notation": "CN(C)CCCN1C(=O)/C(=C/c2ccc(Cl)cc2)Oc2ccccc21.Cl", "pIC50": 3.35}
{"structure_notation": "Cl.O=C1/C(=C/c2ccccc2)Oc2ccccc2N1CCCN1CCN(CO)CC1", "pIC50": "< 3.40"}
{"structure_notation": "C[N+](C)(C)CCCN1C(=O)/C(=C/c2ccccc2)Oc2ccccc21.[Cl-]", "pIC50": 3.00}
{"structure_notation": "COc1ccc2c(c1)N(CCCN(C)C)C(=O)/C(=C/c1ccccc1)O2.Cl", "pIC50": "< 4.00"}
{"structure_notation": "CN(C)CCN1C(=O)/C(=C/c2ccccc2)Oc2ccccc21.Cl", "pIC50": "< 4.00"}
{"structure_notation": "CN(C)CCCN1C(=O)/C(=C/c2cccs2)Oc2ccccc21.Cl", "pIC50": "< 3.70"}
{"structure_notation": "CN(C)CCCN1C(=O)/C(=C/c2ccccc2)Oc2ccccc21.Cl", "pIC50": 3.22}

---

Experiment: Antagonist activity at dopamine receptor in Sprague-Dawley rat olfactory tubercles assessed as inhibition of adenylate cyclase activity after 5 mins
Format: tissue-based, Olfactory tubercle
Conditions: read-out: I50
pIC50: −log10 of the molar value.
# pIC50 per entry
endpoint_name: pIC50

{"structure_notation": "CN1CCN(CCCN2C(=O)/C(=C/c3ccccc3)Oc3ccccc32)CC1.Cl", "endpoint_name": "pIC50", "measurement_qualifier": "=", "reported": 3.35}
{"structure_notation": "Cc1ccc2c(c1)N(CCCN(C)C)C(=O)/C(=C/c1ccccc1)O2.O=C(O)CCC(=O)O", "endpoint_name": "pIC50", "measurement_qualifier": "=", "reported": 3.35}
{"structure_notation": "CN(C)CCCN1C(=O)/C(=C/c2ccccc2)Oc2ccc(Cl)cc21.Cl", "endpoint_name": "pIC50", "measurement_qualifier": "<", "reported": 4.00}
{"structure_notation": "CN(C)CCCN1C(=O)/C(=C/c2ccccc2Cl)Oc2ccccc21.Cl", "endpoint_name": "pIC50", "measurement_qualifier": "=", "reported": 3.77}
{"structure_notation": "CCN(CC)CCCN1C(=O)/C(=C/c2ccccc2)Oc2ccccc21.Cl", "endpoint_name": "pIC50", "measurement_qualifier": "<", "reported": 4.00}

---

Assay: Antagonist activity at dopamine receptor in Sprague-Dawley rat olfactory tubercles assessed as inhibition of dopamine-induced adenylate cyclase activity after 5 mins
Type: tissue-based, Olfactory tubercle
Conditions: read-out: I50
pIC50: −log10 of the molar value.
endpoint_name: pIC50

{"molecule": "Cc1ccc2c(c1)N(CCCN(C)C)C(=O)/C(=C/c1ccccc1)O2.O=C(O)CCC(=O)O", "measurement_qualifier": "=", "reported": 4.82}
{"molecule": "CN(C)CCN1C(=O)/C(=C/c2ccccc2)Oc2ccccc21.Cl", "measurement_qualifier": "=", "reported": 4.00}
{"molecule": "CN1CCN(C2=Nc3cc(Cl)ccc3Nc3ccccc32)CC1 [CLOZAPINE]", "measurement_qualifier": "=", "reported": 5.22}
{"molecule": "Cl.O=C1/C(=C/c2ccccc2)Oc2ccccc2N1CCCN1CCN(CO)CC1", "measurement_qualifier": "=", "reported": 4.27}
{"molecule": "CN(C)CCCN1C(=O)/C(=C/c2ccc(Cl)cc2)Oc2ccccc21.Cl", "measurement_qualifier": "=", "reported": 4.52}
{"molecule": "CN1CCN(CCCN2C(=O)/C(=C/c3ccccc3)Oc3ccc(Cl)cc32)CC1", "measurement_qualifier": "<", "reported": 3.30}
{"molecule": "CN(C)CCCN1C(=O)/C(=C/c2cccs2)Oc2ccccc21.Cl", "measurement_qualifier": "=", "reported": 4.25}
{"molecule": "CN1CCN(CCCN2C(=O)/C(=C/c3ccccc3)Oc3ccccc32)CC1.Cl", "measurement_qualifier": "=", "reported": 4.46}
{"molecule": "CN(C)CCCN1C(=O)/C(=C/c2ccccc2)Oc2ccc(Cl)cc21.Cl", "measurement_qualifier": "=", "reported": 4.00}
{"molecule": "C[N+](C)(C)CCCN1C(=O)/C(=C/c2ccccc2)Oc2ccccc21.[Cl-]", "measurement_qualifier": "=", "reported": 3.19}
{"molecule": "COc1ccc2c(c1)N(CCCN(C)C)C(=O)/C(=C/c1ccccc1)O2.Cl", "measurement_qualifier": "=", "reported": 4.22}
{"molecule": "CN(C)CCCN1C(=O)/C(=C/c2ccccc2)Oc2ccccc21.Cl", "measurement_qualifier": "=", "reported": 4.48}
{"molecule": "OCCN1CCN(CCCN2c3ccccc3Sc3ccc(C(F)(F)F)cc32)CC1 [FLUPHENAZINE]", "measurement_qualifier": "=", "reported": 6.30}
{"molecule": "CN(C)CCCN1C(=O)/C(=C/c2ccccc2Cl)Oc2ccccc21.Cl", "measurement_qualifier": "=", "reported": 4.52}
{"molecule": "CCN(CC)CCCN1C(=O)/C(=C/c2ccccc2)Oc2ccccc21.Cl", "measurement_qualifier": "=", "reported": 4.22}
{"molecule": "CN(C)CCCCN1C(=O)/C(=C/c2ccccc2)Oc2ccccc21.Cl", "measurement_qualifier": "=", "reported": 4.10}
